Measured On: MDM2 (Homo sapiens, UniProt Q00987)
Sequence (Q00987 1-125): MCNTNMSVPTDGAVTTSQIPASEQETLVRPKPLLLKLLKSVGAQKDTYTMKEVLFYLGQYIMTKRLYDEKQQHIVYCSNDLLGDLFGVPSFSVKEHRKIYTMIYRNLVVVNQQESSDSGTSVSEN
Procedure Text: Competitive fluorescence polarization assay for MDM2
Format: binding
Setup Conditions: competitive FP assay, MDM2; read-out: IC50 (MDM2)
Where a SMILES comes first, the peptide text is derived from it. Bridges are numbered along the chain shown (N, C = ends). [ ]: non-standard residue; d: D form. R8 = C=CCCCCCC[C@@](C)(N)C(=O)O; S5 = C=CCCC[C@](C)(N)C(=O)O
Recorded Endpoint: IC50

Name the reported IC50 value associated with the molecule CC(=O)N[C@@H](CC(C)C)C(=O)N[C@H](C(=O)N[C@@H](Cc1ccccc1)C(=O)N[C@]1(C)CCCCCCC=CCCC[C@@](C)(C(=O)N[C@@H](CO)C(=O)N[C@@H](C)C(=O)N[C@@H](CC(C)C)C(N)=O)NC(=O)[C@H](CC(C)C)NC(=O)[C@H](CCC(N)=O)NC(=O)[C@H](C)NC(=O)[C@H](Cc2c[nH]c3ccccc23)NC(=O)[C@H](Cc2ccc(O)cc2)NC(=O)[C@H](C)NC1=O)[C@@H](C)O [compound 4] (Ac-LTF[R8]AYWAQL[S5]SAL-NH2; staple 4-11) 10 to 100 nM

Name the reported IC50 value associated with the molecule CC(=O)N[C@@H](CC(C)C)C(=O)N[C@H](C(=O)N[C@@H](Cc1ccccc1)C(=O)N[C@]1(C)CCCCCCC=CCCC[C@@](C)(C(=O)N[C@@H](CO)C(=O)N[C@H](C(=O)N[C@@H](C)C(N)=O)C(C)C)NC(=O)[C@H](CC(C)C)NC(=O)[C@H](CCC(N)=O)NC(=O)[C@H](C)NC(=O)[C@H](Cc2c[nH]c3ccccc23)NC(=O)[C@H](Cc2ccc(O)cc2)NC(=O)[C@H](C(C)C)NC1=O)[C@@H](C)O (single isomer, unassigned) [compound 139] < 10 nM
